Test system: Bombyx mori
Experiment: Antijuvenile hormone activity in third-instar larvae of Bombyx mori assessed as induction of precocious metamorphosis at 40 ug/larvae topically applied to the dorsal abdomen
Type: functional

| molecule | Activity |
| --- | --- |
| CCOC(=O)c1ccc(OCc2cc3ccccc3n2Cc2ccccc2)cc1 | 84% |
| CCCn1c(COc2ccc(C(=O)OCC)cc2)cc2ccccc21 | 90% |
| CCOC(=O)c1ccc(OC[C@@H]2Cc3ccccc3N2Cc2ccccc2)cc1 | 28% |
| CCCCn1c(COc2ccc(C(=O)OCC)cc2)cc2ccccc21 | 94% |
| CCCCN1c2ccccc2C[C@H]1COc1ccc(C(=O)OCC)cc1 | 82% |
| CCOC(=O)c1ccc(OCc2cc3ccccc3n2CC)cc1 | 5% |
| CCCCC(COc1ccc(C(=O)OCC)cc1)Cc1ccccc1 (configuration not stated) | 12% |
